Values compiled from ChEMBL document CHEMBL1156536.

- Tested on: Human immunodeficiency virus 1
- protocolText: Antiviral activity against HIV1 in human MT4 cells assessed as inhibition of virus-induced cytopathogenicity by MTT assay
- Assay type: functional, organism-based
- assayContext: Human immunodeficiency virus 1, MT4
pEC50: −log10 of the molar value.
endpoint: pEC50

What measured pEC50 goes with S=C(Nc1ccccc1)OCc1c(Cl)cccc1Cl ?
< 4.00

What measured pEC50 goes with S=C(Nc1ccccc1)OCC(c1ccccc1)c1ccccc1 ?
< 4.00

Kindly consider the entry below.
What measured pEC50 goes with O=[N+]([O-])c1ccc(OCCOC(=S)Nc2ccc(Cl)cc2)cc1 ?
< 4.14

###

- Tested on: Human immunodeficiency virus 1
- protocolText: Antiviral activity against HIV1 in human MT4 cells assessed as inhibition of virus-induced cytopathogenicity by MTT assay
- Type: functional, organism-based
- assayContext: Human immunodeficiency virus 1, MT4
pEC50: −log10 of the molar value.
endpoint: pEC50

# count of solved cases: 2
What measured pEC50 goes with COc1ccc(NC(=S)OC(C)COc2ccccc2)cc1 (racemic) ?
< 4.00

What measured pEC50 goes with CCC(OC(=S)Nc1ccccc1)c1ccccc1 (racemic) ?
< 4.00

Kindly consider the entry below.
What measured pEC50 goes with S=C(Nc1ccccc1)OCc1cccc(Oc2ccccc2)c1 ?
< 4.00

###

- protocolText: Selectivity index, ratio of CC50 for human MT4 cells to EC50 for HIV1
- Assay type: toxicity, cell-based
- assayContext: read-out: Ratio CC50/EC50
endpoint: selectivity ratio

# count of solved cases: 3
What measured selectivity ratio goes with CC(COc1ccccc1)OC(=S)Nc1ccc(Cl)cc1 (racemic) ?
> 63

What measured selectivity ratio goes with S=C(Nc1ccccc1)OCCOc1ccccc1 ?
> 17

What measured selectivity ratio goes with S=C(Nc1ccccc1)OC1Cc2ccccc2C1 ?
> 8.3

Dear reader, for each entry below, please note its selectivity ratio.
1. CC(COc1ccccc1)OC(=S)Nc1ccc(F)cc1 (racemic)
2. O=[N+]([O-])c1ccc(NC(=S)OCCc2cccc(O)c2)cc1
3. O=[N+]([O-])c1ccc(NC(=S)OCCc2ccc(Cl)cc2)cc1
4. COc1cccc(CCOC(=S)Nc2ccc(Cl)c([N+](=O)[O-])c2)c1
5. Cc1ccc(NC(=S)OCCOc2ccccc2)cc1

["> 9", 6.5, "> 7.7", 22, 7.4]

Dear reader, for each entry below, please note its selectivity ratio.
1. COc1cccc(CCOC(=S)Nc2ccc([N+](=O)[O-])cc2)c1
2. COc1cccc(CCOC(=S)Nc2ccc(Cl)cc2)c1
3. CC(Cc1ccccc1)OC(=S)Nc1ccccc1 (racemic)
4. O=[N+]([O-])c1ccc(NC(=S)OCCc2ccc(Br)cc2)cc1
5. O=[N+]([O-])c1ccc(NC(=S)OCCc2cccc(Cl)c2)cc1

1. > 500
2. 1180
3. > 11
4. > 13
5. > 67

Dear reader, for each entry below, please note its selectivity ratio.
1. Cc1ccc(NC(=S)OC(C)COc2ccccc2)cc1Cl (racemic)
2. S=C(Nc1ccccc1)OCC1COc2ccccc2O1 (configuration not stated)
3. COc1ccccc1CCOC(=S)Nc1ccc(Cl)cc1
4. COc1ccc(NC(=S)OCCOc2ccccc2)cc1
5. O=[N+]([O-])c1ccc(NC(=S)OCCOc2ccccc2)cc1
6. O=[N+]([O-])c1ccc(NC(=S)OCCc2ccccc2Cl)cc1
7. CC(COc1ccccc1)OC(=S)Nc1ccc([N+](=O)[O-])cc1 (racemic)
8. COc1ccc(CCOC(=S)Nc2ccc([N+](=O)[O-])cc2)cc1

1. > 25
2. > 1.9
3. 614
4. 2.8
5. > 12
6. > 250
7. > 38
8. > 71

###

Would you mind telling me the reported selectivity ratio of each entry?
- protocolText: Selectivity index, ratio of CC50 for human MT4 cells to EC50 for HIV1
- Assay type: toxicity, cell-based
- assayContext: read-out: Ratio CC50/EC50

# count of solved cases: 3
What measured selectivity ratio goes with S=C(Nc1ccccc1)OCC1(c2ccccc2)CC1 ?
7.3

What measured selectivity ratio goes with CC(OC(=S)Nc1ccc(Cl)cc1)c1cccc2ccccc12 (racemic) ?
> 1.2

What measured selectivity ratio goes with Cc1ccc(CCOC(=S)Nc2ccc([N+](=O)[O-])cc2)cc1 ?
> 333

Dear reader, for each entry below, please note its selectivity ratio.
1. CC(COC(=S)Nc1ccc(Cl)c(Cl)c1)c1ccccc1 (racemic)
2. O=[N+]([O-])c1ccc(NC(=S)OCCc2ccc(O)cc2)cc1
3. COc1cccc(CCOC(=S)Nc2ccc(Cl)c(Cl)c2)c1
4. COc1ccccc1CCOC(=S)Nc1ccc(Cl)c([N+](=O)[O-])c1

1. 147
2. < 1
3. 44
4. 49

###

Would you mind telling me the reported selectivity ratio of each entry?
- protocolText: Selectivity index, ratio of CC50 for human MT4 cells to EC50 for HIV1
- Format: toxicity, cell-based
- assayContext: read-out: Ratio CC50/EC50

Dear reader, for each entry below, please note its selectivity ratio.
1. CC(COC(=S)Nc1ccc(Cl)cc1)c1ccccc1 (racemic)
2. Cc1ccccc1CCOC(=S)Nc1ccc([N+](=O)[O-])cc1
3. S=C(Nc1ccccc1)OCCSc1ccccc1
4. S=C(Nc1ccccc1)OC/C=C/c1ccccc1

150
> 143
> 2.6
> 1.5
